These data points were gathered from ChEMBL document CHEMBL5126620.

This listing pairs compounds with measured remaining at 24 h, 66.6 µM.
# assay overview: Metabolic stability in rat serum assessed as parent compound remaining at 66.6 uM after 24 hr incubation by LC-MS analysis relative to control
# Format: ADME, cell-free
# test context: read-out: Stability
Square brackets hold non-standard residues; d marks the D form. Peptide text beside a SMILES is read from it. Aib = CC(C)(N)C(=O)O
Response body: numeric value in %, unit text excluded.

1. CC(=O)N[C@@H](C)C(=O)N[C@@H](CCC(N)=O)C(=O)N[C@@H](CC(C)C)C(=O)N[C@@H](CC(C)C)C(=O)NC(C)(C)C(=O)N[C@@H](Cc1ccc(O)cc1)C(=O)N[C@@H](Cc1ccc(O)cc1)C(=O)N[C@@H](Cc1ccccc1)C(=O)N[C@H](C(=O)N[C@@H](CCC(=O)O)C(=O)N[C@@H](CC(C)C)C(=O)N[C@@H](CCCCN)C(N)=O)[C@@H](C)O (Ac-AQLL[Aib]YYFTELK-NH2)	65

Consider the record given below.
Exercise: Quick one: remaining at 24 h, 66.6 µM of CC(=O)N[C@@H](C)C(=O)NC(C)(C)C(=O)N[C@@H](C)C(=O)NC(C)(C)C(=O)N[C@@H](C)C(=O)N[C@@H](CCC(N)=O)C(=O)N[C@@H](CC(C)C)C(=O)N[C@@H](CC(C)C)C(=O)NC(C)(C)C(=O)N[C@@H](Cc1ccc(O)cc1)C(=O)N[C@@H](Cc1ccc(O)cc1)C(=O)N[C@@H](Cc1ccccc1)C(=O)N[C@H](C(=O)N[C@@H](CCC(=O)O)C(=O)N[C@@H](CC(C)C)C(=O)N[C@@H](CCCCN)C(N)=O)[C@@H](C)O (Ac-A[Aib]A[Aib]AQLL[Aib]YYFTELK-NH2) ?
Key: 75
